- System: MRSA (QA-11.2)
- assayProcedure: MIC, broth microdilution
- Assay type: cell-based, S. aureus
- settings: Staphylococcus aureus, Table S3, read-out: MIC (μM) MRSA (QA-11.2)
- Description: For the determination of minimum inhibitory concentrations (MIC), the broth microdilution method was used in 96-well plate format, according to the guidelines of the Clinical and Laboratory Standards Institute and the recommendations of the European Committee on Antimicrobial Susceptibility Testing (EUCAST). […] The MIC was determined as the lowest concentration of antibiotic that prevented visible bacterial growth. […]
Below, each entry is listed alongside its reported MIC.
Provide only the numeric value, understood in µM.

Known results for compounds:
COc1ccc2nccc(OCC3CCC(NCc4ccc(C)cc4)CC3)c2n1 (centres unmarked) [Compound 6] ... 1.28
COc1ccc2nccc(CCN3CCC(NCc4ccc(C)cc4)CC3)c2n1 [Compound 5] ... 0.082

Kindly indicate its recorded MIC. Item: COc1ccc2nccc(C(O)CC3CCC(NCc4ccc(C)cc4)CC3)c2n1 (centres unmarked) [Compound 8]
0.082

Kindly indicate its recorded MIC. Item: COc1ccc2nccc(OCC3CCC(NCc4ccc(C)cc4)CO3)c2n1 (centres unmarked) [Compound 7]
0.64

Kindly indicate its recorded MIC. Item: O=c1ccc2ncc(=O)n3c2n1C[C@H]3CN1CCC(NCc2cc3c(cn2)OCCC3)CC1 [Gepo, gepotidacin, reference compound]
1.28

---

- assayProcedure: Metabolic activity assessment (cytotoxicity), CellTiter 96 Aqueous One
- Format: cell-based
- settings: human, HUVEC cells (ATCC CRL-1730); 72 h treatment; means of three independent measurements ± SD
Below, each entry is listed alongside its reported IC50 at 72 h.

COc1ccc2nccc(OCC3CCC(NCc4ccc(C)cc4)CO3)c2n1 (stereo not drawn) ... > 50 µM

Kindly indicate its recorded IC50 at 72 h. Item: COc1ccc2nccc(OCC3CCC(NCc4ccc(N)cc4)CO3)c2n1 (stereo not drawn)
> 50 µM

Kindly indicate its recorded IC50 at 72 h. Item: COc1ccc2nccc(OCC3CCC(NCc4ccc(N)cc4)CC3)c2n1 (stereo not drawn)
> 50 µM

---

- assayProcedure: Metabolic activity assessment (cytotoxicity), CellTiter 96 Aqueous One
- Format: cell-based
- settings: human, HepG2 cells (ATCC HB-8065); 72 h treatment; means of three independent measurements ± SD
readoutLabel: IC50 at 72 h

Known results for compounds:
COc1ccc2nccc(OCC3CCC(NCc4ccc(N)cc4)CO3)c2n1 (stereo not drawn) ... > 50 µM
COc1ccc2nccc(OCC3CCC(NCc4ccc(C)cc4)CO3)c2n1 (stereo not drawn) ... > 50 µM

Turning to the following compound.
Kindly indicate its recorded IC50 at 72 h. Item: COc1ccc2nccc(OCC3CCC(NCc4ccc(N)cc4)CC3)c2n1 (stereo not drawn)
> 50 µM

---

Below, each entry is listed alongside its reported IC50.
- system: E. coli DNA gyrase (Escherichia coli, UniProt P0AES4)
- Construct: purchased Inspiralis (Norwich, UK)
- assayProcedure: DNA gyrase supercoiling inhibition assay (high-throughput plate assay)
- Assay type: biochemical
- Method: To determine the IC50 values of the compounds for S. aureus and E. coli, a DNA gyrase supercoiling high-throughput plate assay and a topoIV relaxation high-throughput plate assay were performed. Assay kits and black streptavidin-coated 96-well microtiter plates are available from Inspiralis (Norwich, UK). For pre-screening, an inhibitor concentration of 100 μM was used. […] To determine IC50 values, two independent repetitions were performed and the average was calculated.

Known results for compounds:
COc1ccc2nccc(OCC3CCC(NCc4ccc(N)cc4)CC3)c2n1 (stereo not drawn) ... > 100 µM
COc1ccc2nccc(CCN3CCC(NCc4ccc(N)cc4)CC3)c2n1 ... > 100 µM

Kindly indicate its recorded IC50. Item: COc1ccc2nccc(OCC3CCC(NCc4ccc(N)cc4)CO3)c2n1 (stereo not drawn)
> 100 µM
